System name: Bromodomain-containing protein 3 (Homo sapiens, UniProt Q15059)
Sequence (Q15059 whole entry, the tested form may be a part): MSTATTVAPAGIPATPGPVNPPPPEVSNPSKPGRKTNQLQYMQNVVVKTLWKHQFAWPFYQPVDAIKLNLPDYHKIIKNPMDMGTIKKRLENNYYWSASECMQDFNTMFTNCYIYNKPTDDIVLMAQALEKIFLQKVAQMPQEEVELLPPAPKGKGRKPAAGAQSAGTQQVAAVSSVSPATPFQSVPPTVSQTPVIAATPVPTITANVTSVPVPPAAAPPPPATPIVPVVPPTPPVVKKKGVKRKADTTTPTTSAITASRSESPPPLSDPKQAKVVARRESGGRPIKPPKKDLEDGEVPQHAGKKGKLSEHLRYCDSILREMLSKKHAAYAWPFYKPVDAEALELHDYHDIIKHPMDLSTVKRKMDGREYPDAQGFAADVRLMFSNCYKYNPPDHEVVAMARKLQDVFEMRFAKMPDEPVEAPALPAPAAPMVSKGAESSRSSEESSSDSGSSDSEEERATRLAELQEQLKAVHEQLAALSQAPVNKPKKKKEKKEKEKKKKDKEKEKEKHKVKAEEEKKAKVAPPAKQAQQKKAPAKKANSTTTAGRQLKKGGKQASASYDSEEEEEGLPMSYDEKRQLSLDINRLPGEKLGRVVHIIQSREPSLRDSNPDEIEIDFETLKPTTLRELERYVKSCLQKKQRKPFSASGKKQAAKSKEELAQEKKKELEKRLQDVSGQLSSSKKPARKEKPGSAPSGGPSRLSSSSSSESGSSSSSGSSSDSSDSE
Measurement protocol: Displacement of FAM-labeled ZBA248 from BRD3 BD2 (306 to 417 amino acid residues) (unknown origin) expressed in Rosetta2 DE3 cells after 30 mins by fluorescence polarization assay
Endpoint name: pKi
Scale: pKi equals -log10([C]), with [C] in mol/L.

Input: Fill in reported pKi for this entry: COc1cc2c(cc1-c1c(C)noc1C)ncc1[nH]c(=O)n([C@H](C)c3ccccn3)c12
Output: 7.65

====

System name: Bromodomain-containing protein 4 (Homo sapiens)
Measurement protocol: Displacement of FAM-labeled ZBA248 from BRD4 BD2 (333 to 460 amino acid residues) (unknown origin) expressed in Rosetta2 DE3 cells after 30 mins by fluorescence polarization assay
Recorded IC50, one value per entry.
Number only, in nM; omit the unit.

1. COc1cc2c(cc1-c1c(C)noc1C)[nH]c1ccnc(-c3cn[nH]c3)c12 658
2. COc1cc2c(cc1-c1c(C)n[nH]c1C)[nH]c1ccnc(Cl)c12 2580
3. COc1cc2c(cc1-c1c(C)noc1C)[nH]c1ccnc(-c3c(C)nn(-c4ccccc4)c3C)c12 316

Now for the compound whose IC50 we want.
Input: Fill in reported IC50 for this entry: CCc1noc(C)c1-c1cc2[nH]c3ccnc(Cl)c3c2cc1OC
Output: 1820

====

Recorded IC50, one value per entry.
System name: Bromodomain-containing protein 4 (Homo sapiens)
Measurement protocol: Displacement of FAM-labeled ZBA248 from BRD4 BD2 (333 to 460 amino acid residues) (unknown origin) expressed in Rosetta2 DE3 cells after 30 mins by fluorescence polarization assay
Number only, in nM; omit the unit.

Example compounds with recorded IC50:
1) COc1cc2c(cc1-c1c(C)noc1C)[nH]c1ccncc12 2690
2) COc1cc2c(cc1-c1c(C)noc1C)[nH]c1ccnc(Cl)c12 579

Now for the compound whose IC50 we want.
Input: Fill in reported IC50 for this entry: COc1cc2c(cc1-c1c(C)noc1C)[nH]c1ccnc(-c3c(C)noc3C)c12
Output: 221

====

System name: Bromodomain-containing protein 4 (Homo sapiens, UniProt O60885)
Measurement protocol: biochemical
Endpoint name: Kd (nM)
Number only, in nM; omit the unit.

Input: Please report the measured Kd for COc1cc2c(cc1-c1c(C)noc1C)[nH]c1ccnc(-c3c(C4CC4)n[nH]c3C)c12 tested on Bromodomain-containing protein 4 (Homo sapiens, UniProt O60885).
Output: 47

====

Test system: MV4-11
Measurement protocol: cells
Type: functional, cell-based
Conditions: Homo sapiens, MV4-11, 96 h
Recorded IC50, one value per entry.
Number only, in nM; omit the unit.

1. COc1cc2c(cc1-c1c(C)noc1C)[nH]c1ccnc(-c3c(C4CC4)n[nH]c3C)c12 20

Now for the compound whose IC50 we want.
Input: Fill in reported IC50 for this entry: COc1cc2c(cc1-c1c(C)noc1C)ncc1[nH]c(=O)n([C@H](C)c3ccccn3)c12
Output: 162

====

System name: Bromodomain-containing protein 4 (Homo sapiens)
Measurement protocol: Displacement of FAM-labeled ZBA248 from BRD4 BD1 (44 to 168 amino acid residues) (unknown origin) expressed in Rosetta2 DE3 cells after 30 mins by fluorescence polarization assay
Endpoint name: pIC50
Scale: pIC50 equals -log10([C]), with [C] in mol/L.

1) COc1cc2c(cc1-c1c(C)noc1C)[nH]c1ccnc(-c3c(C4CC4)n[nH]c3C)c12 7.12

Input: Fill in reported pIC50 for this entry: COc1cc2c(cc1-c1c(C)noc1C)[nH]c1ccnc(-c3cn[nH]c3)c12
Output: 6.15

Input: Fill in reported pIC50 for this entry: COc1cc2c(cc1-c1c(C)nn(C)c1C)[nH]c1ccnc(Cl)c12
Output: 4.85

Input: Fill in reported pIC50 for this entry: CCc1n[nH]c(CC)c1-c1nccc2[nH]c3cc(-c4c(C)noc4C)c(OC)cc3c12
Output: 6.88

Input: Fill in reported pIC50 for this entry: COc1cc2c(cc1-c1c(C)noc1C)[nH]c1ccnc(Cl)c12
Output: 6.06

Input: Fill in reported pIC50 for this entry: COc1cc2c(cc1-c1c(C)noc1C)[nH]c1ccnc(-c3c(C)n[nH]c3C)c12
Output: 6.56

====

System name: Bromodomain-containing protein 3 (Homo sapiens, UniProt Q15059)
Measurement protocol: Binding affinity to biotinylated BRD3 BD2 (306 to 417 amino acid residues) (unknown origin) expressed in Rosetta2 DE3 cells by bio-layer interferometry method
Endpoint name: Kd (nM)
Number only, in nM; omit the unit.

Input: Fill in reported Kd for this entry: COc1cc2c(cc1-c1c(C)noc1C)ncc1[nH]c(=O)n([C@H](C)c3ccccn3)c12
Output: 40.5

====

System name: Bromodomain-containing protein 2 (Homo sapiens)
Sequence (P25440 whole entry, the tested form may be a part): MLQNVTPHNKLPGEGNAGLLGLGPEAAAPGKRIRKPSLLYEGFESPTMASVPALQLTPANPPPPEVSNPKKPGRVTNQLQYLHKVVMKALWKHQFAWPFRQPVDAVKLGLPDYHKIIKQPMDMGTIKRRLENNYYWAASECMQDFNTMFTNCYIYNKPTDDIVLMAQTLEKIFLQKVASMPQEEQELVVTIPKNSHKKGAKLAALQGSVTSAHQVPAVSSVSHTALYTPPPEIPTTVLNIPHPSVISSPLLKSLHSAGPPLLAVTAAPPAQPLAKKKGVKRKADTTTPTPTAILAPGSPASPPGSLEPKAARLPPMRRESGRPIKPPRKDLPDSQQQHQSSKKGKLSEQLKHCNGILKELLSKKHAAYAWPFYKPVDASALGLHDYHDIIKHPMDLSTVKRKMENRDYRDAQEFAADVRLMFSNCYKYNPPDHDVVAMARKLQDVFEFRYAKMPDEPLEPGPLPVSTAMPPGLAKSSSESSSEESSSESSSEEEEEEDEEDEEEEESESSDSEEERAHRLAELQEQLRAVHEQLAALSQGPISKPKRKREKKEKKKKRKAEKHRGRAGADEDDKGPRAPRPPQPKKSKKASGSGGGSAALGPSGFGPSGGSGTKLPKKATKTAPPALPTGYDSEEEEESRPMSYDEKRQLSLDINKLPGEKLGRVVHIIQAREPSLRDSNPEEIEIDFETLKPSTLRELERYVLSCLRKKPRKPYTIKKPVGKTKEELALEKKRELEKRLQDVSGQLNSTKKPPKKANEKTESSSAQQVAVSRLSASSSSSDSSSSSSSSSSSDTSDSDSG
Measurement protocol: Displacement of FAM-labeled ZBA248 from BRD2 BD1 (72 to 205 amino acid residues) (unknown origin) expressed in Rosetta2 DE3 cells after 30 mins by fluorescence polarization assay
Endpoint name: pKi
Scale: pKi equals -log10([C]), with [C] in mol/L.

1. COc1cc2c(cc1-c1c(C)noc1C)[nH]c1ccnc(-c3c(C4CC4)n[nH]c3C)c12 7.95

Now for the compound whose pKi we want.
Input: Fill in reported pKi for this entry: CCc1n[nH]c(CC)c1-c1nccc2[nH]c3cc(-c4c(C)noc4C)c(OC)cc3c12
Output: 7.68

====

System name: Bromodomain-containing protein 2 (Homo sapiens)
Measurement protocol: Binding affinity to biotinylated BRD2 BD1 (72 to 205 amino acid residues) (unknown origin) expressed in Rosetta2 DE3 cells by bio-layer interferometry method
Endpoint name: pKd
Scale: pKd equals -log10([C]), with [C] in mol/L.

Input: Please report the measured pKd for COc1cc2c(cc1-c1c(C)noc1C)[nH]c1ccnc(-c3c(C4CC4)n[nH]c3C)c12 tested on Bromodomain-containing protein 2 (Homo sapiens).
Output: 7.32

====

Recorded pKi, one value per entry.
System name: Bromodomain-containing protein 4 (Homo sapiens)
Measurement protocol: Displacement of FAM-labeled ZBA248 from BRD4 BD1 (44 to 168 amino acid residues) (unknown origin) expressed in Rosetta2 DE3 cells after 30 mins by fluorescence polarization assay
Scale: pKi equals -log10([C]), with [C] in mol/L.

1) COc1cc2c(cc1-c1c(C)nn(C)c1C)[nH]c1ccnc(Cl)c12 5.31
2) COc1cc2c(cc1-c1c(C)noc1C)[nH]c1ccnc(-c3c(C)nn(-c4ccccc4)c3C)c12 6.99
3) CCc1onc(C)c1-c1cc2[nH]c3ccnc(Cl)c3c2cc1OC 5.55

Now for the compound whose pKi we want.
Input: Fill in reported pKi for this entry: COc1cc2c(cc1-c1c(C)noc1C)[nH]c1ccnc(-c3c(C)noc3C)c12
Output: 7.32

====

System name: Protein polybromo-1 (Homo sapiens, UniProt Q86U86)
Sequence (Q86U86 whole entry, the tested form may be a part): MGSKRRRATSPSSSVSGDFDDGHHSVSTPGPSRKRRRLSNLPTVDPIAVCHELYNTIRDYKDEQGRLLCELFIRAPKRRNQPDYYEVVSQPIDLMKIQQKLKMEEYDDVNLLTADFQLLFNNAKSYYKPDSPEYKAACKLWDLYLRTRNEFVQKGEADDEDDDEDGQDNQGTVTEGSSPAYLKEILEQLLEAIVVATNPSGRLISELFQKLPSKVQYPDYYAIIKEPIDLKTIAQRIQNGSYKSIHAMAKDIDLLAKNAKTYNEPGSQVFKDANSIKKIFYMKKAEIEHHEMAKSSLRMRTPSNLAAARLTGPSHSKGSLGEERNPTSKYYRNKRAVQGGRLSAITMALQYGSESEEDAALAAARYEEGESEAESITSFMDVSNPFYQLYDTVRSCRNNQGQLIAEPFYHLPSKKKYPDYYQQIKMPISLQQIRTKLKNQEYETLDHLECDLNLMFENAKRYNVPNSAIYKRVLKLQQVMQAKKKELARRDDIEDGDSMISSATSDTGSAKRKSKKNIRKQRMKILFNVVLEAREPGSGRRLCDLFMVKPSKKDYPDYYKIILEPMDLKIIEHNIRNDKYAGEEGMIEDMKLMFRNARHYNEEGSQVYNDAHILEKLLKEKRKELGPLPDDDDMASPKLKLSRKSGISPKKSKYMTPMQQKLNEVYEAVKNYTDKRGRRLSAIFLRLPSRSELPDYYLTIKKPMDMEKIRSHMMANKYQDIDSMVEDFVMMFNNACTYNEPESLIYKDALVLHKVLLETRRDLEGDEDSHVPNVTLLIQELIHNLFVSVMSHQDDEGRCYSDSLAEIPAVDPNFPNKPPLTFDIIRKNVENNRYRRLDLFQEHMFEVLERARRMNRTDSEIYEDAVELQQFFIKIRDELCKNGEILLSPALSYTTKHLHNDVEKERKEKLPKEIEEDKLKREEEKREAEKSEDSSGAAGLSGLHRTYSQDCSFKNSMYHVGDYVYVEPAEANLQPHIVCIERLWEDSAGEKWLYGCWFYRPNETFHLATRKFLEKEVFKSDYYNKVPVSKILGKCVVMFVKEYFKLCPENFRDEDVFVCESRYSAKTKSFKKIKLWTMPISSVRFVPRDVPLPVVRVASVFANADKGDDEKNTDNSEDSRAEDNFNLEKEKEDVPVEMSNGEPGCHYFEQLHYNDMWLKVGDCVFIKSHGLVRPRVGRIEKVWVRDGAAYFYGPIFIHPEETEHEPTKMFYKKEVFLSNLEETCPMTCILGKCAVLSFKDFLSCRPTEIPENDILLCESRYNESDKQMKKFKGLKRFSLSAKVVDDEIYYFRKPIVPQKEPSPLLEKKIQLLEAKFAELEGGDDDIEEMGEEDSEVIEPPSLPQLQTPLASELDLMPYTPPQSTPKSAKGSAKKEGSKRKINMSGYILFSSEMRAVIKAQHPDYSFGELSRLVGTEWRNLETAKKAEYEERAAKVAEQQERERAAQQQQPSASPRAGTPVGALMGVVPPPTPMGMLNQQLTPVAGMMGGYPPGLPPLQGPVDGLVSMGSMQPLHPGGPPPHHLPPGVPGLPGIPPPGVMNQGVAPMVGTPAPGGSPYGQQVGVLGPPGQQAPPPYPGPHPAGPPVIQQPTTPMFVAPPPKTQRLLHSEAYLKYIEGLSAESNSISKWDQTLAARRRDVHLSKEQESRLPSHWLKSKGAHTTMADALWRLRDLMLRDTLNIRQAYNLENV
Measurement protocol: Binding affinity to biotinylated PB1BR5 (645 to 766 amino acid residues) (unknown origin) expressed in Rosetta2 cells by bio-layer interferometry method
Endpoint name: Kd

Input: Fill in reported Kd for this entry: COc1cc2c(cc1-c1c(C)noc1C)[nH]c1ccnc(-c3c(C4CC4)n[nH]c3C)c12
Output: > 10 µM

====

System name: Bromodomain-containing protein 4 (Homo sapiens, UniProt O60885)
Measurement protocol: Displacement of FAM-labeled ZBA248 from BRD4 BD1 (44 to 168 amino acid residues) (unknown origin) expressed in Rosetta2 DE3 cells after 30 mins by fluorescence polarization assay
Endpoint name: IC50

1) COc1cc2c(cc1-c1c(C)noc1C)[nH]c1ccncc12 4.59 µM
2) COc1cc2c(cc1-c1c(C)noc1C)[nH]c1ccnc(-c3c(C)nn(-c4ccccc4)c3C)c12 0.301 µM

Now for the compound whose IC50 we want.
Input: Please report the measured IC50 for CCc1noc(C)c1-c1cc2[nH]c3ccnc(Cl)c3c2cc1OC tested on Bromodomain-containing protein 4 (Homo sapiens, UniProt O60885).
Output: 3.87 µM

====

System name: Bromodomain-containing protein 4 (Homo sapiens, UniProt O60885)
Measurement protocol: Displacement of FAM-labeled ZBA248 from BRD4 BD2 (333 to 460 amino acid residues) (unknown origin) expressed in Rosetta2 DE3 cells after 30 mins by fluorescence polarization assay
pIC50: −log10 of the molar value.
Rule: pIC50 under 6 gives not met, otherwise met.

1) CCc1onc(C)c1-c1cc2[nH]c3ccnc(Cl)c3c2cc1OC not met
2) COc1cc2c(cc1-c1c(C)nn(C)c1C)[nH]c1ccnc(Cl)c12 not met
3) CCc1n[nH]c(CC)c1-c1nccc2[nH]c3cc(-c4c(C)noc4C)c(OC)cc3c12 met

Input: Does the reported pIC50 for COc1cc2c(cc1-c1c(C)noc1C)[nH]c1ccnc(-c3c(C)n[nH]c3C)c12 fall at or above the 6 mark?
Output: met

Input: Does the reported pIC50 for COc1cc2c(cc1-c1c(C)noc1C)[nH]c1ccnc(-c3c(C4CC4)n[nH]c3C)c12 fall at or above the 6 mark?
Output: met

Input: Does the reported pIC50 for CCc1noc(CC)c1-c1cc2[nH]c3ccnc(Cl)c3c2cc1OC fall at or above the 6 mark?
Output: not met

src = ChEMBL document CHEMBL3580597
